Test system: IPF HBECs
Assay: Induction of the unjammed-to-jammed transition (UJT) in IPF HBECs
Format: cell-based, human
Details: day 14 IPF HBECs
From the text: Epithelial Cell Culture: Primary human bronchial epithelial cells (HBECs) were obtained from two sources (1) provided by Dr. Hong Wei Chu at National Jewish Health, or (2) lung transplant collection at the University of Colorado Hospital (IRB protocol: 11-1664 or 18-0572). Epithelial cells from bronchial brushes or CT-guided dissection were expanded to passage 2 before being cultured at air liquid interface (ALI). […]
reported metric: induction of the UJT (jamming) in IPF epithelia

smiles_structure=NC1(c2ccc(-c3nc4ccn5c(=O)[nH]nc5c4cc3-c3ccccc3)cc2)CCC1 target_desc="IPF HBECs" result="did not induce the UJT"
smiles_structure=CN1CCN(c2nc(C3=C(c4c[nH]c5ccccc45)C(=O)NC3=O)c3ccccc3n2)CC1 target_desc="IPF HBECs" result="did not induce the UJT"
smiles_structure=O=[N+]([O-])c1ccc2c(c1)S(=O)(=O)C=C2 target_desc="IPF HBECs" result="did not induce the UJT"
